Assay: NCI Yeast Anticancer Drug Screen. Data for the rad50 strain (AID 155);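 further: 0% = growth of vehicle-only cultures of the same strain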
Details: S. cerevisiae rad50 strain growth inhibition; at 50.0 µM; hits give high values
About 79,000 compounds went through this panel and 15% of them were active in at least one assay; those are over-represented in the sample as a whole.
Can you tell me growth inhibition for the items I'm about to list?
One number for each entry, in %.

>  <structure.as.smiles>
O=[N+]([O-])c1ccc(C(Br)c2ccc([N+](=O)[O-])cc2)cc1

>  <output.unit>
%

>  <growth inhibition>
99.8

$$$$
>  <structure.as.smiles>
Cc1cc(=O)oc2cc(O)cc(O)c12

>  <output.unit>
%

>  <growth inhibition>
16.5

$$$$

Now for the compound whose growth inhibition we want.
Qu. Respond only with growth inhibition recorded for CCOC(=O)C1=NN(c2ccccc2)C(=O)/C1=C\N1C(=O)/C(=C/c2cccc(O)c2)SC1=S
Ans. 6.8
